experiment: VP16 transactivation inhibitors, counter-screen for SRC1 inhibitor project, cell-based, luminescence, high throughput (AID 588824); settings: cell-based VP16 transactivation luciferase luminescence; at 3.6 µM
Calls of active or inactive are those of the source. No stated cut-off is given here; in the data, active means inhibition above about 25%; inactive means the rest.
Output constraint: value belongs to yes for active, no for inactive

INSERT INTO measurements (compound, cat) VALUES
  ('Cn1c(=O)[nH]c(=O)c2c1nc(N1CCCCC1)n2CC(O)COc1ccc([N+](=O)[O-])cc1 (stereo unspecified)', 'no'),
  ('CC1CC(C)CN(c2ncnc3c2cnn3-c2ccc(Cl)cc2)C1 (stereo unspecified)', 'no'),
  ('CCOC(=O)c1c(CN(CC)CC)n(C)c2cc(Br)c(O)cc12', 'no'),
  ('Cc1cc(C)c(C(=O)/C=C/c2cccc3ccccc23)c(=O)[nH]1', 'yes'),
  ('Cc1cc(C(=O)OCC(=O)N2CC(C)OC(C)C2)c(C)n1-c1ccccc1 (stereo unspecified)', 'no');

What did the test return for CC1(C(=O)NS(=O)(=O)Cc2cccc(Cl)c2)CCN1C(=O)Cc1ccc(-c2ccccc2)cc1 (stereo unspecified) ?
no

Then what about the compound `CN(C)c1ccc(Sc2ccc3nc(N)nc(N)c3c2)cc1` ?
yes

====

biological target: Neuropeptide Y receptor type 1 (Homo sapiens) (UniProt P25929); assay: NPY-Y1 direct agonists, selectivity assay for NPY-Y2 potentiator project, cell-based, fluorescence (AID 1702); conditions: HEK293 Y1-CNGC, membrane potential fluorescence, agonism; at 3.6 µM;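 further: cells stimulated with 1 µM isoproterenol plus the PDE inhibitor Ro 20-1724; 0% = isoproterenol with DMSO and no NPY and 100% = 40 nM NPY; Y1 agonists lower the membrane potential dye signal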
Sequence (P25929 whole entry, looked up): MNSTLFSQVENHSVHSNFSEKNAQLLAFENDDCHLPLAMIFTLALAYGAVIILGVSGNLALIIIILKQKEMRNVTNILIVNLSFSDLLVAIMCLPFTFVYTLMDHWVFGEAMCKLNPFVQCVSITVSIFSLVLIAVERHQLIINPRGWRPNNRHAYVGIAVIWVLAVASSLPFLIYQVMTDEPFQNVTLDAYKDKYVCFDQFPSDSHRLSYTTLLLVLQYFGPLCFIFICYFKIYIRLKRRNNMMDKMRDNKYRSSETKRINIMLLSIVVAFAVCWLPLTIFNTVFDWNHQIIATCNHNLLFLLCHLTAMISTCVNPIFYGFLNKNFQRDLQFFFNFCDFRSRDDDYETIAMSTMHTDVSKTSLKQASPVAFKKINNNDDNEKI
This is one part of the list. The source made the active and inactive calls.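 The calls were made as follows: active = activation above the mean of DMSO-only control wells plus 3 SD (cut at about 18% in these data); inactive = the rest.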
Select the matching outcome among active, inactive

INSERT INTO results (molecule, test_system, cat) VALUES
  ('COc1ccc2nc(NC(=O)NC3CCCCC3)sc2c1', 'Neuropeptide Y receptor type 1 (Homo sapiens) (UniProt P25929)', 'active');

What classification did `CC(=O)c1ccc2c(c1)OCCOCCOc1ccc(C(C)=O)cc1OCCOCCO2` end up with in this test?
active

Query `Oc1c(Cl)cc(Cl)c(Cl)c1Cc1c(O)c(Cl)cc(Cl)c1Cl` next
inactive

Cool, now `O=C(CC(O)(C(F)(F)F)C(F)(F)F)Nc1ccc(Cl)c(Cl)c1`
inactive

And O=C1NC(c2ccc(-c3ccccc3[N+](=O)[O-])o2)C(C(=O)c2ccc(Cl)cc2)C(O)(C(F)(F)F)N1 (stereo unspecified) ?
active

And what about the molecule CC(Nc1ccccc1)c1cccnc1 (stereo unspecified) ?
inactive

====

Item-by-item account of inhibition
test: StAR promoter reporter inhibitors, counter-screen for LRH-1 inverse agonist project, cell-based, luminescence, high throughput (AID 651611); details: StAR promoter luciferase reporter counterscreen, at 3.6 µM, active compounds read high
Activity calls are given as the source filed them. Rule as the data show it: active = inhibition above about 28%; inactive = the rest.

INSERT INTO results (compound, metric_name, endpoint_value) VALUES
  ('COC(=O)c1ccc(NC(=O)CSc2ccc(-c3ccccn3)nn2)cc1', 'inhibition', '-13.3% (inactive)'),
  ('Cn1cnnc1SCC(=O)Nc1ccc(N2CCOCC2)cc1', 'inhibition', '7.69% (inactive)'),
  ('O=C(CCl)NCc1cc(-c2ccc(Cl)cc2)no1', 'inhibition', '43.5% (active)'),
  ('C/C(=N\NC(N)=S)C12CC3CC(CC(C3)C1)C2', 'inhibition', '20.4% (inactive)'),
  ('Cc1cccc(OCC(=O)Nc2ccncc2)c1C', 'inhibition', '6.9% (inactive)');

inhibition lookup needed for `Cc1ccccc1-c1nnc(SCC(=O)Nc2cccc(C)c2C)o1` , thanks.
-7.62% (inactive)

Try this compound next: `NCCCNc1nc(N)c([N+](=O)[O-])c(NC2CCCCC2)n1`
84.7% (active)

What do we get for `CCN(CC)C(=O)CSc1nc2ccc(NC(=O)CSc3nccn3C)cc2s1` ?
-37.7% (inactive)

Item: `CN(C)c1ccc(C=c2c3ccccc3n3c2c2ccccc2[n+]3C)cc1`
54.9% (active)

Note, next up: `Cc1cccc(-n2c(N)c(-c3nc4ccccc4n3C)c3nc4ccccc4nc32)c1`
8.3% (inactive)

What about this compound? CCn1c2ccccc2c2cc(C3C(C#N)=C(N)Oc4n[nH]c(COC)c43)ccc21 (stereo unspecified)
44.9% (active)

====

biological target: Steroidogenic factor 1 (Homo sapiens); test: SF1 (NR5A1) inverse agonists, counter-screen for LRH-1 inverse agonist project, cell-based, luminescence, high throughput (AID 651614); conditions: cell-based SF1 luciferase reporter, at 3.6 µM;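 further: cells cotransfected with StAR promoter reporter and SF1 expression vector; 0% = vehicle on cells with receptor and 100% = vehicle on cells lacking receptor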
The source made the active and inactive calls. No stated cut-off is given here; in the data, active means inhibition above about 44%; inactive means the rest.
Tick one outcome: True for active, False for inactive

INSERT INTO results (compound, cat) VALUES
  ('O=C(Nc1nnc(C2=COCCO2)o1)c1ccc([N+](=O)[O-])s1', 'False'),
  ('Cc1cc(Br)ccc1NC(=O)CSc1nnc(CN2CCOCC2)n1C', 'False'),
  ('N#Cc1cccc(C=C(C(=O)c2ccccc2)c2ccccc2)c1', 'False'),
  ('O=C(CN1C(=O)c2ccccc2S1(=O)=O)c1ccc2c(c1)OCCCO2', 'True'),
  ('O=C(Nc1nc(-c2ccccn2)cs1)c1ccc([N+](=O)[O-])o1', 'True');

Entry `O=C(Nc1ccccc1)Nc1cc(OCC(F)(F)F)cc(OCC(F)(F)F)c1` : call = ?
True

Next compound: C=C1C(=O)C2=CC1CCC(=O)C1(C)CCC(OC(C)=O)C(C)(C)C1CC2O (configuration not stated)
False

Similarly, `O=C(CCC1CCCC1)Nc1ccc(C(=O)NCc2cccnc2)cc1` ?
True

Now consider `CC(C)C(=O)N1CCN(c2ccc(NC(=O)c3ccc([N+](=O)[O-])o3)cc2)CC1` .
True

// repeat for `CS(=O)(=O)N1CCN(c2ccccc2NC(=O)c2ccc([N+](=O)[O-])o2)CC1` and report
True

Check `CNC(=O)c1cc(Oc2ccc(NC(=O)Nc3ccc(Cl)c(C(F)(F)F)c3)cc2)ccn1` too.
True

Entry to check: `O=[N+]([O-])c1nn(-c2ccc3c(c2)OCCO3)n(O)c1=Nc1ccccc1`
True

Lookup `COc1ccc(NS(=O)(=O)c2cccc(NC(=O)c3ccc(Cl)nc3)c2)cc1`
True

Same lookup for `COc1ccc(NC(=O)CN2C(=O)NC3(CCCC3)C2=O)cc1` , please.
True

Field entry: `N#Cc1cc(Br)ccc1N=C1CCCN1c1ccccc1`
False

====

# inhibition annotations
tested on: transactivating tegument protein VP16 (Human herpesvirus 1); assay: VP16 transactivation reporter inhibitors, counter-screen for SRC2 inhibitor project, cell-based, luminescence, single concentration (AID 652007); conditions: cell-based VP16 transactivation luciferase reporter, at 8.9 µM, active compounds read high
Give the value in % but do not write % after it.

Please review the entries below; each comes with its answer.
INSERT INTO measurements (molecule, metric_name, endpoint_value) VALUES
  ('Cc1nn(C)c(Cl)c1NC(=O)OCc1ccc(Cl)cc1Cl', 'inhibition', 10.8),
  ('Cn1c(=O)c2[nH]c(CCCc3ccc([N+](=O)[O-])cc3)nc2n(C)c1=O', 'inhibition', -19.8),
  ('CC(=O)OCCN1c2ccccc2Sc2cnccc21', 'inhibition', -4.99);

Look at this molecule and give its reported inhibition. `Cc1cc(=O)c2ccccc2n1Cc1ccccc1`
-10.6

Can you handle `O=C(Cc1ccc(-c2ccccc2)cc1)NNC(=S)NCc1ccco1` next?
-22.3

Request: COC(=O)C1CN(Cc2ccccc2)CCS(=O)(=O)N1Cc1cn(Cc2ccc(Cl)cc2)nn1 (stereo not given)
-13.7

Now this one: `C[C@@H]1C(c2ccc(F)cc2)=NN(c2ccccc2)[C@H]1C(=O)N1CCOC1=O`
-11.2

====

assay: VP16 transactivation inhibitors, counter-screen for SRC1 inhibitor project, cell-based, luminescence, high throughput (AID 588824); conditions: cell-based VP16 transactivation luciferase luminescence; at 3.6 µM; active compounds read high
Let's look at some compounds and their measured inhibition.
Number in %, nothing else.

Example cases with answers are listed next.
INSERT INTO results (compound, endpoint_value) VALUES
  ('O=C(CC(Nc1ccc(Cl)cc1Cl)C(=O)O)c1ccccc1 (stereo unspecified)', -13.2),
  ('O=C(NC1CCCCC1)c1n[nH]c2c1CCCCC2', -18.1),
  ('CCCCC(=O)NC(c1ccc(N(C)C)cc1)c1ccc2cccnc2c1O (stereo unspecified)', 55.9);

# query: inhibition of entry `S=C(NC1CCCCC1)N1CCOCCOCCN(C(=S)NC2CCCCC2)CCOCCOCC1`
7.75

What about this compound? `CC(=O)NCCOc1nc(N(C)C)nc(N(C)C)n1`
0

Check `Oc1ccc(N=Nc2ccc3c(c2)OCCO3)c2cccnc12` too.
-39.5

Can you handle `CCc1ccc(/C=C2\SC(=S)N(CCCC(=O)NCCCN3CCOCC3)C2=O)cc1` next?
8.83

====

target: Nuclear receptor coactivator 2 (Homo sapiens); test: SRC2 coactivator transcriptional activity inhibitors, confirmation, cell-based, luminescence, HEK293, triplicate (AID 652008); details: HEK293 GAL4-SRC2 luciferase reporter, at 8.9 µM;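 further: 0% = DMSO-treated cells and 100% = Gossypol at 36 µM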
Activity calls are given as the source filed them.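 Rule for the calls: active = mean inhibition above 46.5%, the solvent-only control mean plus 3 SD; inactive = the rest.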
In this exercise, the only acceptable responses are T for active, F for inactive

Answered examples (2):
INSERT INTO measurements (molecule, test_system, cat) VALUES
  ('CC1(Cc2ccc(Cl)cc2)C(=O)Nc2ccc(-c3cccnc3)cc21 (stereo not drawn)', 'Nuclear receptor coactivator 2 (Homo sapiens)', 'T'),
  ('O=C1NC[C@@H](Cc2ccc(O)cc2)N(CCc2cccc(F)c2)C1=O', 'Nuclear receptor coactivator 2 (Homo sapiens)', 'F');

Hey, what did the test say about `CCOC(=O)c1cccc(NS(=O)(=O)c2ccc(NC(C)=O)cc2)c1` ?
F

Also `Cc1ccc(-c2nc(NC(=O)c3nn(C)cc3[N+](=O)[O-])sc2C)cc1` ?
T
